// values below are reported pEC50
test system: EVSA-T (human breast carcinoma); experiment: Anti-proliferative activity, Alamar Blue assay, EVSA-T; type: cell-based; settings: Homo sapiens, EVSA-T, 72 h, EVSA-T cells, 72 hours, Alamar Blue; read-out: EVSA-T prolif
Counter-ions that a name gives are not always drawn.
Interpret pEC50 as the negative base-10 log of the concentration measured in mol/L.

{"COMPOUND": "C[C@@H]1CN(CC(=O)N2CC(C)(C)c3ncc(Cc4ccc(F)cc4)cc32)[C@@H](CN2C[C@@H]3C[C@H]2CO3)CN1 [Example 7, dihydrochloride]", "pEC50": 8.21}

-- ask Field request: pEC50 | item: C[C@@H]1CN(CC(=O)N2CC(C)(C)c3ncc(C(O)c4ccccc4)cc32)[C@@H](CN2[C@H](C)COC[C@H]2C)CN1 (single isomer, unassigned) [Example 113, dihydrochloride]
-- reply 8.03

-- ask Field request: pEC50 | item: C[C@@H]1CN(CC(=O)N2CC(C)(C)c3ncc(Cc4ccc(F)cc4)cc32)[C@@H](CN2Cc3cccnc3C2)CN1 [Example 21, dihydrochloride]
-- reply 8.43

----------
test system: EVSA-T (human breast carcinoma); assay: Anti-proliferative activity, Alamar Blue assay, EVSA-T; assay type: cell-based; conditions: Homo sapiens, EVSA-T; read-out: EC50 in EVSA-T cell line assays
pEC50: −log10 of the molar value. Counter-ions that a name gives are not always drawn.
ASSAY_ENDPOINT: pEC50

-- ask Field request: pEC50 | item: C[C@@H]1CN(CC(=O)N2CC(C)(C)c3ncc(Cc4ccc(F)cc4F)cc32)[C@@H](CN2CCOC[C@]2(C)CO)CN1 [Example 57, dihydrochloride]
-- reply > 6.00

-- ask Field request: pEC50 | item: C[C@@H]1CN(CC(=O)N2CC(C)(C)c3ncc(Cc4ccc(F)cc4)cc32)[C@@H](CN2CCOCC23CC3)CN1 [Example 10, dihydrochloride]
-- reply > 6.00

-- ask Field request: pEC50 | item: C[C@@H]1CN(CC(=O)N2CC(C)(C)c3ncc(Cc4ccc(F)cc4)cc32)[C@@H](CN2[C@H](CO)COC[C@H]2C)CN1 [Example 37, dihydrochloride]
-- reply > 6.00

-- ask Field request: pEC50 | item: CCCC(F)(F)c1cc2c(cn1)C(C)(C)CN2C(=O)CN1C[C@@H](C)NC[C@@H]1CN1CCOC[C@]1(C)CO (single isomer, unassigned) [Example 69, dihydrochloride]
-- reply > 6.00

-- ask Field request: pEC50 | item: C[C@@H]1CN(CC(=O)N2CC(C)(C)c3ncc(C(O)c4cccc(F)c4F)cc32)[C@@H](CN2[C@H](C)COC[C@H]2C)CN1 (single isomer, unassigned) [Example 111, dihydrochloride]
-- reply > 6.00

-- ask Field request: pEC50 | item: C[C@@H]1CN(CC(=O)N2CC(C)(C)c3ncc(Cc4ccc(F)cc4)cc32)[C@@H](CN2CCN(c3ncccn3)C[C@H]2C)CN1 [Example 53, dihydrochloride]
-- reply > 6.00

-- ask Field request: pEC50 | item: C[C@@H]1CN(CC(=O)N2CC(C)(C)c3ncc(Cc4ccc(F)cc4)cc32)[C@@H](CN2CCOC[C@H]2CO)CN1 [Example 2, dihydrochloride]
-- reply > 6.00

----------
test system: EVSA-T (human breast carcinoma); experiment: Anti-proliferative activity, Alamar Blue assay, EVSA-T; assay type: cell-based; conditions: EVSA-T cells, 72 hours, Alamar Blue; dihydrochloride; read-out: EVSA-T prolif
Counter-ions that a name gives are not always drawn.
ASSAY_ENDPOINT: pEC50
Interpret pEC50 as the negative base-10 log of the concentration measured in mol/L.

Sample records with pEC50:
{"MOLECULE": "C[C@@H]1CN(CC(=O)N2CC(C)(C)c3ncc(C(O)c4ccc(F)cc4F)cc32)[C@@H](CN2[C@H](C)COC[C@H]2C)CN1 (single isomer, unassigned) [Example 104, dihydrochloride]", "pEC50": 8.89}
{"MOLECULE": "C[C@@H]1CN(CC(=O)N2CC(C)(C)c3ncc(C(O)c4ccccc4)cc32)[C@@H](CN2[C@H](C)COC[C@H]2C)CN1 (single isomer, unassigned) [Example 114, dihydrochloride]", "pEC50": 7.62}
{"MOLECULE": "C[C@@H]1CN(CC(=O)N2CC(C)(C)c3ncc(C(O)c4cccc(F)c4)cc32)[C@@H](CN2[C@H](C)COC[C@H]2C)CN1 (single isomer, unassigned) [Example 105, dihydrochloride]", "pEC50": 7.46}
{"MOLECULE": "C[C@@H]1CN(CC(=O)N2CC(C)(C)c3ncc(C(O)c4ccc(F)c(F)c4)cc32)[C@@H](CN2[C@H](C)COC[C@H]2C)CN1 (single isomer, unassigned) [Example 110, dihydrochloride]", "pEC50": 8.55}

Now for a further molecule.
-- ask Field request: pEC50 | item: C[C@@H]1CN(CC(=O)N2CC(C)(C)c3ncc(C(O)c4ccc(F)c(F)c4)cc32)[C@@H](CN2[C@H](C)COC[C@H]2C)CN1 (single isomer, unassigned) [Example 109, dihydrochloride]
-- reply 8.01

----------
tested on: EVSA-T (human breast carcinoma); experiment: Anti-proliferative activity, Alamar Blue assay, EVSA-T; assay type: cell-based; details: EVSA-T cells, 72 hours, Alamar Blue; dihydrochloride; read-out: EVSA-T prolif
Where a name gives a salt, the structure may show the parent alone.
ASSAY_ENDPOINT: pEC50
Interpret pEC50 as the negative base-10 log of the concentration measured in mol/L.

Sample records with pEC50:
{"MOLECULE": "C[C@@H]1CN(CC(=O)N2CC(C)(C)c3ncc(C(O)c4ccc(F)cc4F)cc32)[C@@H](CN2[C@H](C)COC[C@H]2C)CN1 (single isomer, unassigned) [Example 103, dihydrochloride]", "RECORDED_MEASUREMENT": 8.55}
{"MOLECULE": "C[C@@H]1CN(CC(=O)N2CC(C)(C)c3ncc(C(O)c4cc(F)ccc4F)cc32)[C@@H](CN2[C@H](C)COC[C@H]2C)CN1 (single isomer, unassigned) [Example 116, dihydrochloride]", "RECORDED_MEASUREMENT": 7.26}
{"MOLECULE": "C[C@@H]1CN(CC(=O)N2CC(C)(C)c3ncc(C(O)c4cc(F)ccc4F)cc32)[C@@H](CN2[C@H](C)COC[C@H]2C)CN1 (single isomer, unassigned) [Example 115, dihydrochloride]", "RECORDED_MEASUREMENT": 8.02}
{"MOLECULE": "C[C@@H]1CN(CC(=O)N2CC(C)(C)c3ncc(C(O)c4cccc(F)c4)cc32)[C@@H](CN2[C@H](C)COC[C@H]2C)CN1 (single isomer, unassigned) [Example 106, dihydrochloride]", "RECORDED_MEASUREMENT": 8.37}
{"MOLECULE": "C[C@@H]1CN(CC(=O)N2CC(C)(C)c3ncc(C(O)c4ccccc4F)cc32)[C@@H](CN2[C@H](C)COC[C@H]2C)CN1 (single isomer, unassigned) [Example 108, dihydrochloride]", "RECORDED_MEASUREMENT": 8.57}
{"MOLECULE": "COCC1(C)COCCN1C[C@H]1CN[C@H](C)CN1CC(=O)N1CC(C)(C)c2ncc(Cc3ccc(F)cc3)cc21 (single isomer, unassigned) [Example 100, dihydrochloride]", "RECORDED_MEASUREMENT": 9.04}
{"MOLECULE": "C[C@@H]1CN(CC(=O)N2CC(C)(C)c3ncc(C(O)c4ccccc4F)cc32)[C@@H](CN2[C@H](C)COC[C@H]2C)CN1 (single isomer, unassigned) [Example 107, dihydrochloride]", "RECORDED_MEASUREMENT": 8.15}

Now for a further molecule.
-- ask Field request: pEC50 | item: CC1CC(=O)CCN1C[C@H]1CN[C@H](C)CN1CC(=O)N1CC(C)(C)c2ncc(Cc3ccc(F)cc3)cc21 (single isomer, unassigned) [Example 40, dihydrochloride]
-- reply 8.55

----------
test system: EVSA-T (human breast carcinoma); test: Anti-proliferative activity, Alamar Blue assay, EVSA-T; type: cell-based; conditions: Homo sapiens, EVSA-T, 72 h, EVSA-T cells, 72 hours, Alamar Blue; read-out: EVSA-T prolif
Structures can show the parent of a compound that is named as a salt.
ASSAY_ENDPOINT: log10(EC50) (log10 of the value in nM)
Transform log10 | Measure EC50 | Unit nM

Sample records with log10(EC50):
{"COMPOUND": "CC(=O)N1CCN(C[C@H]2CN[C@H](C)CN2CC(=O)N2CC(C)(C)c3cnc(Cc4ccc(F)cc4)cc32)[C@H](C)C1 [Example 56, dihydrochloride]", "ASSAY_ENDPOINT": "log10(EC50)", "RECORDED_MEASUREMENT": -0.38}
{"COMPOUND": "C[C@@H]1CN(CC(=O)N2CC(C)(C)c3ncc(Cc4ccc(F)cc4)cc32)[C@@H](CN2CCC[C@H]2C(F)(F)F)CN1", "ASSAY_ENDPOINT": "log10(EC50)", "RECORDED_MEASUREMENT": 1.08}
{"COMPOUND": "CCCC(F)(F)c1cc2c(cn1)C(C)(C)CN2C(=O)CN1C[C@@H](C)NC[C@@H]1CN1[C@H](C)COC[C@H]1C [Example 44, dihydrochloride]", "ASSAY_ENDPOINT": "log10(EC50)", "RECORDED_MEASUREMENT": 0.00}
{"COMPOUND": "C[C@@H]1CN(CC(=O)N2CC(C)(C)c3cnc(Cc4ccc(F)cc4)cc32)[C@@H](CN2[C@H](C)COC[C@H]2C)CN1 [Example 55, dihydrochloride]", "ASSAY_ENDPOINT": "log10(EC50)", "RECORDED_MEASUREMENT": -0.64}
{"COMPOUND": "CC(C)[C@@H]1COCCN1C[C@H]1CN[C@H](C)CN1CC(=O)N1CC(C)(C)c2ncc(Cc3ccc(F)cc3)cc21 [Example 13, dihydrochloride]", "ASSAY_ENDPOINT": "log10(EC50)", "RECORDED_MEASUREMENT": 0.08}

-- ask Short answer please: log10(EC50), EVSA-T (human breast carcinoma), entry CC1CS(=O)(=O)CCN1C[C@H]1CN[C@H](C)CN1CC(=O)N1CC(C)(C)c2ncc(Cc3ccc(F)cc3)cc21 (some centres unmarked) [Example 9, dihydrochloride]
-- reply 0.32

-- ask Short answer please: log10(EC50), EVSA-T (human breast carcinoma), entry C[C@@H]1CN(CC(=O)N2CC(C)(C)c3ncc(Cc4ccc(F)cc4)cc32)[C@@H](CN2CCOCC2(C)CO)CN1 (some centres unmarked) [Example 47, dihydrochloride]
-- reply -0.05

-- ask Short answer please: log10(EC50), EVSA-T (human breast carcinoma), entry C[C@@H]1CN(CC(=O)N2CC(C)(C)c3cnc(Cc4ccc(F)cc4)cc32)[C@@H](CN2CCOC[C@@]2(C)CO)CN1 [Example 62, dihydrochloride]
-- reply 0.04

-- ask Short answer please: log10(EC50), EVSA-T (human breast carcinoma), entry CC1N(C[C@H]2CN[C@H](C)CN2CC(=O)N2CC(C)(C)c3ncc(Cc4ccc(F)cc4)cc32)CCOC1(C)C (some centres unmarked) [Example 32, dihydrochloride]
-- reply -0.15

-- ask Short answer please: log10(EC50), EVSA-T (human breast carcinoma), entry C[C@@H]1CN(CC(=O)N2CC(C)(C)c3cc(C#N)c(Cc4ccc(F)cc4)cc32)[C@@H](CN2[C@H](C)COC[C@H]2C)CN1 [Example 92, dihydrochloride]
-- reply 0.43

-- ask Short answer please: log10(EC50), EVSA-T (human breast carcinoma), entry CCCC(F)(F)c1cc2c(cn1)C(C)(C)CN2C(=O)CN1C[C@@H](C)NC[C@@H]1CN1CCN(C(C)=O)C[C@H]1C [Example 60, dihydrochloride]
-- reply 0.83

-- ask Short answer please: log10(EC50), EVSA-T (human breast carcinoma), entry C[C@@H]1CN(CC(=O)N2CC(C)(C)c3ncc(Cc4ccc(F)cc4)cc32)[C@@H](CN2CCC(F)(F)CC2)CN1 [Example 4, dihydrochloride]
-- reply 0.83

-- ask Short answer please: log10(EC50), EVSA-T (human breast carcinoma), entry C[C@@H]1CN(CC(=O)N2CC(C)(C)c3ncc(C(O)c4cccc(F)c4F)cc32)[C@@H](CN2[C@H](C)COC[C@H]2C)CN1 (single isomer, unassigned) [Example 111, dihydrochloride]
-- reply 1.40

-- ask Short answer please: log10(EC50), EVSA-T (human breast carcinoma), entry C[C@@H]1CN(CC(=O)N2CC(C)(C)c3ncc(Cc4ccc(F)cc4)cc32)[C@@H](CN2CCC[C@@H]2C(F)(F)F)CN1
-- reply 1.53
